Cited source: patent US20240385190A1

Target: FN1
Assay: ELISA
EXPERIMENTAL READOUT: absorbance
Number only, please.

- BINDER: "KPEP11_02 (antibody, V domains shown, Rabbit IgG; also called anti-human EphA4 rabbit monoclonal antibody KPEP11_02) VH: QSLEESGGRLVTPGGSLTLTCTVSGIDLSSYAMSWVRQAPEKGLEWIGFINNYGTYYASWAKGRFTISKTSTTVDLKVTSLTTEDTATYFCVRGGRSPNYDIVSGDIWGPGTLVTVSS VL: YVMMTQTPSSVSEPVGGTVTIKCQASQNIYNSLAWYQQKPGQRPKLLIADASELASGVPQRFSGSGSGTQFTLTISDLECADAATYYCQSSSAGDSYVGGFGGGTEVVVKG"
  EXPERIMENTAL READOUT: "absorbance"
  MEASUREMENT: 0.213

Please find the next binder below.
# lookup: absorbance of KPEP11_09 (antibody, V domains shown, Rabbit IgG; also called anti-human EphA4 rabbit monoclonal antibody KPEP11_09) VH: QSVEESGGRLVTPGTPLTLTCTVSGFSLSSYHMSWVRQAPGKGLEWIGIIYRSGNTYSANWAKGRFTISKTSTTVDLKITSPTTEDTATYFCARESSTFYGMDLWGPGTLVTVSS VL: YVMMTQTPSSVSAAVGGTVTINCQASQSVYGNNELAWYQQKPGQRPKLLIYRASTLASGVPSRFKGSGSGTEFTLTISDLECADAATYYCLGYKSDDYTFGGGTKVEIKG
0.24
